Value source: ChEMBL document CHEMBL3885861

- Organism: Rattus norvegicus
- EXPERIMENT: Open TG-GATES - Regimen: Daily Repeat
- Format: toxicity, organism-based, Sprague-Dawley
- Set-up: regimen Daily Repeat, gender Male, age 6 weeks
- TEST_PARAMETERS: in vivo, po, 0 mg/kg, […], tissue Plasma, route gavage, dose level Control, time 14 day
Lab note: compare GLC against 200 mg/dL. Equal or greater, write 1. Smaller, write 0.

Reported GLC reaches at least 200 mg/dL for CC(=O)[C@@]1(O)CC[C@H]2[C@@H]3C=C(Cl)C4=CC(=O)CC[C@]4(C)[C@H]3CC[C@@]21C [CHLORMADINONE] ?
0

Reported GLC reaches at least 200 mg/dL for NS(=O)(=O)c1cc(C(=O)O)c(NCc2ccco2)cc1Cl [FUROSEMIDE] ?
0

Reported GLC reaches at least 200 mg/dL for Nc1ccc(Cc2ccc(N)cc2)cc1 ?
0

Reported GLC reaches at least 200 mg/dL for CN(C/C=C/C#CC(C)(C)C)Cc1cccc2ccccc12 [TERBINAFINE] ?
1

Reported GLC reaches at least 200 mg/dL for COc1ccc([C@@H]2Sc3ccccc3N(CCN(C)C)C(=O)[C@@H]2OC(C)=O)cc1 [DILTIAZEM] ?
0

----------
- Organism: Rattus norvegicus
- EXPERIMENT: Open TG-GATES - Regimen: Daily Repeat
- Assay type: toxicity, organism-based, Sprague-Dawley
- Set-up: regimen Daily Repeat, gender Male, age 6 weeks
- TEST_PARAMETERS: in vivo, po, 100 mg/kg, […], tissue Plasma, route gavage, dose level Low, time 28 day
MEASURED_PROPERTY: gamma-GTP (IU/L)
All answers are understood in IU/L, so give the number only.

Name the recorded gamma-GTP for O=C(O)c1ccccc1Nc1ccccc1 .
1

Name the recorded gamma-GTP for CC(S)C(=O)NCC(=O)O (centres undefined) .
1.6

Name the recorded gamma-GTP for CC(=O)[C@@]1(O)CC[C@H]2[C@@H]3C=C(Cl)C4=CC(=O)CC[C@]4(C)[C@H]3CC[C@@]21C .
2.2

Name the recorded gamma-GTP for CCCCNC(=O)NS(=O)(=O)c1ccc(C)cc1 [TOLBUTAMIDE] .
1

----------
- Organism: Rattus norvegicus
- EXPERIMENT: Open TG-GATES - Regimen: Daily Repeat
- Format: toxicity, organism-based, Sprague-Dawley
- Set-up: regimen Daily Repeat, gender Male, age 6 weeks
- TEST_PARAMETERS: in vivo, po, 1000 mg/kg, 72 h, route gavage, dose level High, time 3 day
MEASURED_PROPERTY: TERMINAL_BW

Name the recorded TERMINAL_BW for CC(S)C(=O)NCC(=O)O (centres undefined) [TIOPRONIN] .
223.7 g

Name the recorded TERMINAL_BW for CC(=O)[C@@]1(O)CC[C@H]2[C@@H]3C=C(Cl)C4=CC(=O)CC[C@]4(C)[C@H]3CC[C@@]21C [CHLORMADINONE] .
236.9 g

Name the recorded TERMINAL_BW for O=C(O)c1ccccc1Nc1ccccc1 [FENAMIC ACID] .
219.3 g

Name the recorded TERMINAL_BW for CCCCNC(=O)NS(=O)(=O)c1ccc(C)cc1 [TOLBUTAMIDE] .
225.8 g

----------
Can you tell me ALP for the items I'm about to list?
- Organism: Rattus norvegicus
- EXPERIMENT: Open TG-GATES - Regimen: Single
- Type: toxicity, organism-based, Sprague-Dawley
- Parameters: regimen Single, gender Male, age 6 weeks
- TEST_PARAMETERS: in vivo, po, 0 mg/kg, 6 h, tissue Plasma, route gavage, dose level Control
All answers are understood in IU/L, so give the number only.

Name the recorded ALP for CCN(CC)C(=S)SSC(=S)N(CC)CC .
1209.4

Name the recorded ALP for Nc1ccc(Cc2ccc(N)cc2)cc1 .
1552.8

Name the recorded ALP for NS(=O)(=O)c1cc(C(=O)O)c(NCc2ccco2)cc1Cl [FUROSEMIDE] .
1332.6

Name the recorded ALP for C=C[C@H]1C[N@@]2CC[C@H]1C[C@@H]2[C@@H](O)c1ccnc2ccc(OC)cc12 .
1503.8

Name the recorded ALP for CN(C/C=C/C#CC(C)(C)C)Cc1cccc2ccccc12 .
967.6

Name the recorded ALP for CCCCNC(=O)NS(=O)(=O)c1ccc(C)cc1 [TOLBUTAMIDE] .
1197.4

Name the recorded ALP for COc1cc2ncnc(Nc3ccc(F)c(Cl)c3)c2cc1OCCCN1CCOCC1 .
1643.4

Name the recorded ALP for CCO .
727.6

Name the recorded ALP for CC(=O)[C@@]1(O)CC[C@H]2[C@@H]3C=C(Cl)C4=CC(=O)CC[C@]4(C)[C@H]3CC[C@@]21C .
1313.8

Name the recorded ALP for O=C(O)c1ccccc1Nc1ccccc1 .
1530.8

Name the recorded ALP for O=c1ccc2ccccc2o1 .
982
